TARGET: FPR1 (Homo sapiens, UniProt P21462)
Sequence (P21462 1-350): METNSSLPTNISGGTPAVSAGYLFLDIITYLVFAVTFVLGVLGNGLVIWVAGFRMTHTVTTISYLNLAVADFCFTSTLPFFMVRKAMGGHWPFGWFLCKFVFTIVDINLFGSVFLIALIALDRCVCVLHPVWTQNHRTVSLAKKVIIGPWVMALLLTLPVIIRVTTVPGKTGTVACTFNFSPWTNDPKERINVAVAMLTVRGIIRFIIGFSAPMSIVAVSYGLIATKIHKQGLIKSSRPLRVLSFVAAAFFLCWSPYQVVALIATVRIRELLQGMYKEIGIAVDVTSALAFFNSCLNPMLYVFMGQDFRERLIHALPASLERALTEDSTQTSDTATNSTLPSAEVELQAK
ASSAY_PROTOCOL: Change in calcium activity by peptide, FPR1 activation effect
EXPERIMENTAL_PARAMETERS: calcium activity (Fura-2), graded per Table 3, read-out: EC50 for [Ca^2+] FPR1
Method: The day before measuring calcium activity, the cells were prepared at 3×10^5 cells per well in a 96-well flat clear bottom black plate (Costar, #3603). […] After the Fura-2-treated cells, the prepared peptide, and a dedicated tip were placed at each section of FlexStation 3 Multi-Mode Microplate Reader (Molecular Devices, #Flex3), changes in calcium activity caused by the peptides were measured using SoftMax Pro 7 Software (Molecular Devices, #FLEX3-INSTALL-OS). […]
Peptide text beside a SMILES is read from it.
ATTRIBUTE_MEASURED: EC50

CCCC(=O)N[C@@H](CCSC)C(=O)N[C@@H](CCCNC(=N)N)C(=O)N[C@@H](Cc1ccc(O)cc1)C(=O)N[C@@H](Cc1c[nH]c2ccccc12)C(=O)N1CCC[C@H]1C(=O)N[C@H](CCSC)C(N)=O [Peptide 112] (HELM PEPTIDE1{[CCCC(=O)[*:2]].M.R.Y.W.P.[dM].[am]}$$$$V2.0)
1 to 10 µM
CSCC[C@H](NC(=O)[C@H](CCCCN)NC(C)=O)C(=O)N[C@@H](CCCCN)C(=O)N[C@@H](Cc1ccc(O)cc1)C(=O)N[C@@H](CCCCN)C(=O)N1CCC[C@H]1C(=O)N[C@H](CCSC)C(N)=O [Peptide 67] (HELM PEPTIDE1{[ac].K.M.K.Y.K.P.[dM].[am]}$$$$V2.0)
> 10 µM

Here is another compound to look at.
Ask: For CCCCCCCC(=O)N[C@@H](CCSC)C(=O)N[C@@H](CCCNC(=N)N)C(=O)N[C@@H](Cc1ccc(O)cc1)C(=O)N[C@@H](CCCCN)C(=O)N1CCC[C@H]1C(=O)N[C@H](CCSC)C(N)=O [Peptide 57] (HELM PEPTIDE1{[CCCCCCCC(=O)[*:2]].M.R.Y.K.P.[dM].[am]}$$$$V2.0) , what is its reported EC50?
Reply: > 10 µM

Cited source for all entries: patent US20250361268A1
